Test system: MDA-MB-435 melanoma
Assay: NCI-60 one-dose screen, 48 h
Details: 10 µM unless noted
This is part of a sample that, as a whole, favours compounds with a hit. Of some 83,000 tested, about 20% had one in any assay. Active and inactive are the calls of the source. The calls were made as follows: active = growth percent below 10; inactive = the rest.
I would appreciate it if you answered using one of these outcomes: Y = active, N = inactive

Field: example entries. Status: answers known.
# molecule, qualitative label
rows = [
    ("O=C(N/N=C/c1ccncc1)c1ccccc1Nc1cccc(C(F)(F)F)c1", "N"),
    ("Cc1cc2cc3cc(C)c(N)cc3[n+](C)c2cc1N", "Y"),
    ("CCCCCOc1ccc(/C=N/Nc2cc(C)nc3ccc(Br)cc23)cc1", "Y"),
    ("CC(C)(C)CC(C)(C)Nc1c(-c2ccc(C(F)(F)F)cc2)nc2cnccn12", "N"),
    ("O=C(CNCCO)Nc1ccc2ncnc(Nc3ccc(OCc4cccc(F)c4)c(Cl)c3)c2c1", "N"),
]

What is the recorded call for this molecule in the test? COc1ccc2c(c1)OC1=C(C(=O)OC1)C2c1cc(OC)c(OC)c(OC)c1 (stereo not drawn)
Y

Which outcome did this test record for the molecule CCN(CC)CCSCCCNc1c(C)cnc2cc(Cl)ccc12 ?
N

Dear all, I need the recorded test outcome for Clc1ccc(N2N=C(c3cccc(Nc4ccncc4)c3)CC2c2ccc3c(c2)OCO3)cc1 (stereo not drawn) , thank you.
Y

Per the assay record, what outcome was assigned to O=c1[nH]nc(-c2ccc(Br)cc2)cc1Cc1ccc(O)cc1 ?
N

Hey, what did the test say about Nc1cc(N)c2cccnc2c1O ?
Y

----------
Tested on: SK-MEL-28 melanoma
Assay: NCI-60 one-dose screen, 48 h (100 = growth as untreated, 0 = no growth, -100 = all killed)
Conditions: 10 µM unless noted
About 83,000 compounds went through this panel and 20% of them were active in at least one assay; those are over-represented in the sample as a whole.
measure name: growth (%)
Give the number; % is assumed, so skip it.

# compound, display unit, value reported
data = [
    ("CC(C)CN(C(=O)c1ccc(Cl)cc1)c1c(N)n(CC(C)C)c(=O)[nH]c1=O", "%", 107),
]

Find the measured growth of CN(C)Cc1c(-c2ccccc2)[nH]c2ccccc12 and report it.
97.2

Report growth for COc1cc2nc(-c3ccc(C(F)(F)F)cc3)cc(OCCCN3CCCCC3)c2cc1OC
51.4

Complete the entry with growth for COc1cccc2c1C(=O)c1c(O)c3c(c(O)c1C2=O)C[C@@](O)(C(=O)CO)C[C@@H]3O[C@H]1C[C@H](N)[C@@H](O)[C@H](C)O1
-34.7

----------
Tested on: A549/ATCC NSCLC
Assay: NCI-60 one-dose screen, 48 h (100 = growth as untreated, 0 = no growth, -100 = all killed)
Conditions: 10 µM unless noted
Compounds without any hit were thinned out: in the full panel of roughly 83,000, 20% have a hit.
Decide using growth alone. Strictly below 70%: TRUE. Equal to or above 70%: FALSE.

Solved entries (count: 2):
# compound, assay target, qualitative label
records = [
    ("O=C(CN1CCOCC1)Nc1ccc2ncnc(Nc3ccc(Oc4cccc(C(F)(F)F)c4)c(Cl)c3)c2c1", "A549/ATCC NSCLC", "TRUE"),
    ("O=S(=O)(NCCCNc1nccc(-c2c(-c3ccccc3)nc3occn23)n1)c1ccc(Cl)cc1", "A549/ATCC NSCLC", "TRUE"),
]

Does CN1C(=O)N(C)[C@H]2NC(NN)=N[C@H]21 have growth strictly under 70%?
FALSE

Identify whether the compound Cc1c2c(cc[n+]1Cc1ccccc1)c1ccc(OCc3ccccc3)cc1n2Cc1ccccc1 records growth below 70%.
TRUE

Input CC1(C)NCCC[C@]2(C)[C@H]3CC=C4[C@@H]5C[C@@](C)(CO)CC[C@]5(C)CC[C@@]4(C)[C@]3(C)CC[C@@H]12 ; condition: growth strictly below 70%. Does it hold?
TRUE

Just wondering, is growth of COc1ccccc1N1CCN(C(=O)c2ccc3nc(NC(=O)c4ccc(NCCc5ccccc5)c([N+](=O)[O-])c4)sc3c2)CC1 below 70%?
FALSE

hey, is growth for CNC(=O)NCC1OC(n2cnc3c(NC(=O)Nc4ccccc4)ncnc32)C(O[Si](C)(C)C(C)(C)C)C1O[Si](C)(C)C(C)(C)C (stereo not given) lower than 70% or not?
TRUE

Does this compound meet the criterion growth < 70%? COc1cc(/C=N/NC(=O)c2ccccc2Nc2cccc(C(F)(F)F)c2)ccc1O
FALSE

Consider the compound Cc1cccc(C)c1-c1cc(Cc2ccc(Cl)cc2)c(=O)[nH]n1 . Is its growth strictly less than 70%?
TRUE

Is 70% strictly greater than the compound's reported growth? compound: COc1ccc(Cn2nc3c(c2-c2cc(OC)c(OC)c(OC)c2)-c2oncc2CC3)cc1
FALSE

Strictly below 70% in growth? O=c1[nH]c(=O)[nH]c(=S)[nH]1
FALSE

Determine whether this compound shows growth lower than 70% (ties excluded): CC1CCN(C(=O)OCc2nc3nc(Cl)nc(N4CCOCC4)c3[nH]2)CC1
TRUE

Is growth strictly under 70% for the entry COc1ccc(/C(=C\c2ccccc2)C(=O)O)cc1OC ?
FALSE

Given the entry CC(c1ccccc1)n1ccnc1CO (stereo not given) , would its reported growth be below 70%?
FALSE

is_below(growth, 70%) for O=C1CCCCCCCCC(O)C(O)CCCC(c2cccs2)O1 (stereo not given) ?
FALSE

Origin of values: PubChem BioAssay (NCI)
